System: Saccharomyces cerevisiae
Experiment: protein stability index of tFT-peptide fusion (C-terminal peptide) (PSI (0-1 scale)); higher = more stable (slower turnover)
Details: genetic background: das1 deletion; temperature: 30 C
Outcome: True for protein stability index of at least 0.5; False for anything lower.

Please check the record "PFIPLLLAPALA" and state if its protein stability index is at or above 0.5. False

Please check the record "GGIVLLVRVCGP" and state if its protein stability index is at or above 0.5. False

Please check the record "WVGWVVVLGCVG" and state if its protein stability index is at or above 0.5. False

Please check the record "GICLVLVSDIWI" and state if its protein stability index is at or above 0.5. False

Please check the record "GWSRRFFCLFIV" and state if its protein stability index is at or above 0.5. False

Please check the record "VYDVSVGVAVVG" and state if its protein stability index is at or above 0.5. False

Please check the record "CGGVQVWRVKVV" and state if its protein stability index is at or above 0.5. True

Please check the record "CFGSALLKCWLC" and state if its protein stability index is at or above 0.5. True

Please check the record "VLFFCLVIYVGV" and state if its protein stability index is at or above 0.5. False

Please check the record "FVGLFEYILLFV" and state if its protein stability index is at or above 0.5. False

Please check the record "MVVILLVHWEYV" and state if its protein stability index is at or above 0.5. False

Please check the record "WALWGFVFWDWW" and state if its protein stability index is at or above 0.5. False

Please check the record "LCLPLYIRILSF" and state if its protein stability index is at or above 0.5. False

Please check the record "RCCWWNAQAVWR" and state if its protein stability index is at or above 0.5. True

Please check the record "VLLGYPRILSLF" and state if its protein stability index is at or above 0.5. True

Please check the record "VYWRGLHLQRLL" and state if its protein stability index is at or above 0.5. True

Please check the record "SISVQCSMLRVL" and state if its protein stability index is at or above 0.5. False

Please check the record "LLPTSVFLPSLF" and state if its protein stability index is at or above 0.5. True

Please check the record "SRARIRLPRILS" and state if its protein stability index is at or above 0.5. True

Please check the record "RFICMMYLVYLC" and state if its protein stability index is at or above 0.5. False

Please check the record "ALFLLWVVMHDV" and state if its protein stability index is at or above 0.5. False

Please check the record "VVGVVVCWGCGW" and state if its protein stability index is at or above 0.5. False

Please check the record "NFCVLLQFCVLV" and state if its protein stability index is at or above 0.5. False

Please check the record "GVYFIGISRCVC" and state if its protein stability index is at or above 0.5. True

###

System: Saccharomyces cerevisiae;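 further: PSI is a weighted mean of sequencing reads over stability bins, variants kept only with over 10 reads, mCherry proximal and sfGFP distal, peptide attached via GGGS linker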
Assay: protein stability index of tFT-peptide fusion (C-terminal peptide) (PSI (0-1 scale)); higher = more stable (slower turnover)
Conditions: genetic background: das1 deletion; temperature: 37 C
Can you tell me protein stability index for the items I'm about to list?
Reply with just the number.

Entry under review: "VCNSIPLTPPPA" . Reported protein stability index? 0.716

Entry under review: "RPPPTPRSVLLN" . Reported protein stability index? 0.71

Entry under review: "STNMDNRIRTLA" . Reported protein stability index? 0.72

Entry under review: "CLCLICFLCWFA" . Reported protein stability index? 0.514

Entry under review: "AFVVPLFLCCCG" . Reported protein stability index? 0.277

Entry under review: "SIRVIVAVRNIS" . Reported protein stability index? 0.663

Entry under review: "ALRLPPPPFSLY" . Reported protein stability index? 0.72

Entry under review: "VRMVIFSSVYLT" . Reported protein stability index? 0.533

Entry under review: "FLPLLFFFFFRF" . Reported protein stability index? 0.485

Entry under review: "IPRSCRIRLAVL" . Reported protein stability index? 0.717

Entry under review: "YPSCPINFICLC" . Reported protein stability index? 0.685

Entry under review: "SFVLLSSFLVFV" . Reported protein stability index? 0.396

Entry under review: "FFPSFGLFLCPV" . Reported protein stability index? 0.5

Entry under review: "LLSYMVSLVVYL" . Reported protein stability index? 0.338

Entry under review: "SVVYCRMRVHFV" . Reported protein stability index? 0.432

Entry under review: "KKKKQKKNNNKR" . Reported protein stability index? 0.755

Entry under review: "VAVFFFCRVFFL" . Reported protein stability index? 0.412

Entry under review: "PPPAPPLSMPAP" . Reported protein stability index? 0.718

Entry under review: "SFVCFSYYIVNI" . Reported protein stability index? 0.564

Entry under review: "CFFVSLFFYIDC" . Reported protein stability index? 0.392

Entry under review: "IRLCAASFMVVF" . Reported protein stability index? 0.535

Entry under review: "WYYTWKQLVMIV" . Reported protein stability index? 0.186

Entry under review: "PHPPRPPCPPIL" . Reported protein stability index? 0.721

Entry under review: "AAVQVCVLLLLL" . Reported protein stability index? 0.521

Entry under review: "FTLFFVASVLDL" . Reported protein stability index? 0.532

Entry under review: "HLAQYSSSLHLM" . Reported protein stability index? 0.731

Entry under review: "VLYWTGTLFVSL" . Reported protein stability index? 0.426

Entry under review: "KRARVIWKLVVV" . Reported protein stability index? 0.583

Entry under review: "RVLCLVSSLTLF" . Reported protein stability index? 0.612

Entry under review: "SMGVLITYLVQV" . Reported protein stability index? 0.51

Entry under review: "PHFDLLLCLSLN" . Reported protein stability index? 0.718

Entry under review: "ASWRYMFPVTLG" . Reported protein stability index? 0.685

Entry under review: "VRLYLRSCVVES" . Reported protein stability index? 0.437

Entry under review: "AFYLCLYFMPVS" . Reported protein stability index? 0.503

Entry under review: "FCIFAMQICTSA" . Reported protein stability index? 0.221

Entry under review: "PLPSEKAPTLLL" . Reported protein stability index? 0.736

Entry under review: "GLGLIRTSRLLC" . Reported protein stability index? 0.718

Entry under review: "LVLSFVMLVSGH" . Reported protein stability index? 0.384

Entry under review: "SPTIFLPLFLTS" . Reported protein stability index? 0.522

Entry under review: "FSFVVRMFFRIL" . Reported protein stability index? 0.408

Entry under review: "PHVSALSRDPES" . Reported protein stability index? 0.725
